Tested on: VDR:RXRa (NR concentration 270 nM, RXRa partner concentration 90 nM)
experiment notes: PBM binding z-score (relative to random genomic background probes); higher = stronger binding; sequences stand for … in GC…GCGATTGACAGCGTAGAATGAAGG
Binary classification by PBM binding z-score, with 3 as an inclusive lower bound for Y; all other cases are N.

Known results for sequences:
* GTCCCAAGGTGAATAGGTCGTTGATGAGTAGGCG | N
* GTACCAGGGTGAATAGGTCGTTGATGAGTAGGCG | N
* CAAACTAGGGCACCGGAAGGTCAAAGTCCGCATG | Y
* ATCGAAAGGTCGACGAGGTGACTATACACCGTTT | Y

Kindly review the next sequence as well.
Request: # check: PBM binding z-score of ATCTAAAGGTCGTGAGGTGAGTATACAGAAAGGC is greater than or equal to 3
Result: Y
